Measured IgG column RT of individual entries
assay_target: human serum polyclonal antibodies
assay_text: cross-interaction chromatography (CIC), column with human serum polyclonal IgG
Entry rule: numbers only, all in min.

anti-human MCT1 antibody Ab19 (antibody, human IgG1, kappa, V domains shown) VH: QVQLVQSGAEVKKPGASVKVSCTVSGRSLTNYHLQWVRQAPGQGLEWMGFIRRSGNTEYNSEFKSRVTMTRDTSTSTVYMELSSLRSEDTAVYYCARNRWYHGTYYSPGYYVMDAWGQGTLVTVSS VL: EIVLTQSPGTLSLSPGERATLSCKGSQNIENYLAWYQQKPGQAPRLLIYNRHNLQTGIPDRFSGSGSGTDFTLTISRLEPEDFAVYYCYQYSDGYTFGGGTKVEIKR = 5.41

Return IgG column RT (reported value) for this binder: anti-human MCT1 antibody Ab14 (antibody, human IgG1, kappa, V domains shown) VH: QVQLVQSGAEVKKPGASVKVSCTVSGRSLTNYHLQWVRQAPGQGLEWMGFIRSSGNTEYNSEFKSRVTMTRDTSTSTVYMELSSLRSEDTAVYYCARNRWYHGTYYSPGYYVMDPWGQGTLVTVSS VL: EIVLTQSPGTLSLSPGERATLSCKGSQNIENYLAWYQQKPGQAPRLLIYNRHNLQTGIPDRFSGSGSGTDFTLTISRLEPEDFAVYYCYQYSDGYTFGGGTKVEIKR 5.29
